Parameter HNF4a-screening_activity_(mean_of_n=2): see the listing below.
# SUBJECT_OF_TEST: Gal4-HNF4α (human HNF4α LBD) (Homo sapiens, UniProt P41235)
# Construct: uniprot entry: P41235-1, residues 142-377; expressed in transfected cells; host or cells: HEK293T
# PROTOCOL: Hybrid Gal4-HNF4α reporter gene assay in transiently transfected HEK293T cells
# Type: cell-based
# REPORTED_CONDITIONS: Table S1, primary screening, 50 µM
PROPERTY_LABEL: HNF4a-screening_activity_(mean_of_n=2)

[[record]]
compound = "O=C(O)Cc1ccccc1"
result_number = 1.086

[[record]]
compound = "Nc1cccc(C(F)(F)F)c1"
result_number = 0.9015

[[record]]
compound = "COc1cccc2c1CCCC2=O"
result_number = 1.287

[[record]]
compound = "c1cncc(CN2CCNCC2)c1"
result_number = 0.9979

[[record]]
compound = "Nc1nc(N)nc(-c2ccccc2)n1"
result_number = 0.8184

[[record]]
compound = "Cc1cc(C)nc(O)n1"
result_number = 1.288

[[record]]
compound = "CCN(CC)CCOc1ccc(C(C)=O)cc1"
result_number = 1.006

[[record]]
compound = "CCc1ccc(CCO)nc1"
result_number = 1.216

[[record]]
compound = "Oc1ccc2[nH]ccc2c1 [Prestw-Frag-1645, Oc1ccc2[nH]ccc2c1]"
result_number = 1.016


====

# SUBJECT_OF_TEST: Gal4-HNF4α (human HNF4α LBD) (Homo sapiens, UniProt P41235)
# Construct: uniprot entry: P41235-1, residues 142-377; expressed in transfected cells; host or cells: HEK293T
# Sequence (P41235 142-377): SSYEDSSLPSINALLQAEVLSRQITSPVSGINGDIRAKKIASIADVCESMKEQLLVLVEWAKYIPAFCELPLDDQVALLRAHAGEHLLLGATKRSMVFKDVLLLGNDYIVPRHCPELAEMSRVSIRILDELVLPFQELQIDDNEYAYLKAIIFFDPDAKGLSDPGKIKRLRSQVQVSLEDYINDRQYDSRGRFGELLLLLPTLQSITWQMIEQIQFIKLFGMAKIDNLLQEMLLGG
# PROTOCOL: Hybrid Gal4-HNF4α reporter gene assay in transiently transfected HEK293T cells
# Assay type: cell-based
# REPORTED_CONDITIONS: Table S1, primary screening, 50 µM
PROPERTY_LABEL: HNF4a-screening_activity_(mean_of_n=2)

[[record]]
compound = "CCCOc1ccc(C(=O)OCC)cc1N [Prestw-Frag-2724, CCCOc1ccc(cc1N)C(=O)OCC]"
subject_of_test = "Gal4-HNF4α (human HNF4α LBD) (Homo sapiens, UniProt P41235)"
result_number = 1.372

[[record]]
compound = "Oc1cccc(CN2CCCCC2)c1 [Prestw-Frag-2809, Oc1cccc(CN2CCCCC2)c1]"
subject_of_test = "Gal4-HNF4α (human HNF4α LBD) (Homo sapiens, UniProt P41235)"
result_number = 1.12

[[record]]
compound = "COc1ccc(OC)c(C(C)O)c1 (stereo not shown) [Prestw-Frag-2208, COc1ccc(OC)c(c1)C(C)O]"
subject_of_test = "Gal4-HNF4α (human HNF4α LBD) (Homo sapiens, UniProt P41235)"
result_number = 1.098

[[record]]
compound = "C#Cc1cccc(N)c1 [Prestw-Frag-3669, Nc1cccc(c1)C#C]"
subject_of_test = "Gal4-HNF4α (human HNF4α LBD) (Homo sapiens, UniProt P41235)"
result_number = 1.159

[[record]]
compound = "c1cnc2[nH]ncc2c1 [Prestw-Frag-1428, c1n[nH]c2ncccc12]"
subject_of_test = "Gal4-HNF4α (human HNF4α LBD) (Homo sapiens, UniProt P41235)"
result_number = 1.325

[[record]]
compound = "CCN(CC)CCOC(=O)C1(c2ccccc2)CCCC1 [Prestw-Frag-2774, CCN(CC)CCOC(=O)C1(CCCC1)c1ccccc1]"
subject_of_test = "Gal4-HNF4α (human HNF4α LBD) (Homo sapiens, UniProt P41235)"
result_number = 1.226

[[record]]
compound = "Oc1ccc2c(c1)CCC2 [Prestw-Frag-3713, Oc1ccc2CCCc2c1]"
subject_of_test = "Gal4-HNF4α (human HNF4α LBD) (Homo sapiens, UniProt P41235)"
result_number = 1.011

[[record]]
compound = "OC(c1ccccc1)c1ccccc1 [Prestw-Frag-1122, OC(c1ccccc1)c1ccccc1]"
subject_of_test = "Gal4-HNF4α (human HNF4α LBD) (Homo sapiens, UniProt P41235)"
result_number = 1.034

[[record]]
compound = "Nc1nc2ccccc2o1 [Prestw-Frag-2256, Nc1nc2ccccc2o1]"
subject_of_test = "Gal4-HNF4α (human HNF4α LBD) (Homo sapiens, UniProt P41235)"
result_number = 0.8277

[[record]]
compound = "CC(=O)c1ccc(O)cc1O [Prestw-Frag-2506, CC(=O)c1ccc(O)cc1O]"
subject_of_test = "Gal4-HNF4α (human HNF4α LBD) (Homo sapiens, UniProt P41235)"
result_number = 0.9153

[[record]]
compound = "Nc1ccccn1 [Prestw-Frag-2443, Nc1ccccn1]"
subject_of_test = "Gal4-HNF4α (human HNF4α LBD) (Homo sapiens, UniProt P41235)"
result_number = 1.112

[[record]]
compound = "N=C(N)CSCc1ccccc1 [Prestw-Frag-2348, NC(=N)CSCc1ccccc1]"
subject_of_test = "Gal4-HNF4α (human HNF4α LBD) (Homo sapiens, UniProt P41235)"
result_number = 1.134

[[record]]
compound = "CCC(=O)Nc1ccc(CC(=O)O)cc1 [Prestw-Frag-2362, CCC(=O)Nc1ccc(CC(O)=O)cc1]"
subject_of_test = "Gal4-HNF4α (human HNF4α LBD) (Homo sapiens, UniProt P41235)"
result_number = 0.9958

[[record]]
compound = "CN1CCC[C@H]1c1cccnc1 [Prestw-Frag-1187, CN1CCC[C@H]1c1cccnc1]"
subject_of_test = "Gal4-HNF4α (human HNF4α LBD) (Homo sapiens, UniProt P41235)"
result_number = 1.172

[[record]]
compound = "O=C(O)C(CO)c1ccccc1 (stereo not shown) [Prestw-Frag-1686, OCC(C(O)=O)c1ccccc1]"
subject_of_test = "Gal4-HNF4α (human HNF4α LBD) (Homo sapiens, UniProt P41235)"
result_number = 1.109

[[record]]
compound = "NCC1(c2ccccc2)CC1 [Prestw-Frag-3751, NCC1(CC1)c1ccccc1]"
subject_of_test = "Gal4-HNF4α (human HNF4α LBD) (Homo sapiens, UniProt P41235)"
result_number = 0.9761

[[record]]
compound = "Clc1cccc2ncccc12 [Prestw-Frag-2593, Clc1cccc2ncccc12]"
subject_of_test = "Gal4-HNF4α (human HNF4α LBD) (Homo sapiens, UniProt P41235)"
result_number = 0.9438

[[record]]
compound = "O=C(O)/C=C/c1cnc[nH]1 [Prestw-Frag-3090, OC(=O)\\C=C\\c1cnc[nH]1]"
subject_of_test = "Gal4-HNF4α (human HNF4α LBD) (Homo sapiens, UniProt P41235)"
result_number = 1.054

[[record]]
compound = "O=C1CNCN1 [Prestw-Frag-3718, O=C1CNCN1]"
subject_of_test = "Gal4-HNF4α (human HNF4α LBD) (Homo sapiens, UniProt P41235)"
result_number = 1.053

